# target or test system: NTR1 (Homo sapiens (Human))
# method summary: Functional Ca2+ mobilisation assay (example part II)
# Assay type: cell-based
# condition info: antagonist assay

{"compound": "COc1cccc(OC)c1-c1cc(C(=O)NC2(C(=O)O)C3CC4CC(C3)CC2C4)nn1-c1ccc(C(=O)N(C)CCCN(C)CCCN(C)C(=S)Nc2ccc(NC(=S)NCCCCCN(O)C(=O)CCC(=O)NCCCCCN(O)C(=O)CCC(=O)NCCCCCN(O)C(C)=O)cc2)cc1C(C)C (stereo not shown)", "value units": "nM", "IC50": 17.5}
{"compound": "COc1cccc(OC)c1-c1cc(C(=O)N[C@H](C(=O)O)C2CCCCC2)nn1-c1ccc(C(=O)N(C)CCCN(C)CCCN(C)C(=O)CN2CCN(CC(=O)O)CCN(CC(=O)O)CCN(CC(=O)O)CC2)cc1C(C)C", "value units": "nM", "IC50": 125}
{"compound": "COc1cccc(OC)c1-c1cc(C(=O)NC2(C(=O)O)C3CC4CC(C3)CC2C4)nn1-c1ccc(C(=O)N(CCCNC(=O)CN2CCN(CC(=O)O)CCN(CC(=O)O)CCN(CC(=O)O)CC2)CCCN(C)C)cc1C(C)C (stereo not shown)", "value units": "nM", "IC50": 12.6}
{"compound": "COc1cccc(OC)c1-c1cc(C(=O)NC2(C(=O)O)C3CC4CC(C3)CC2C4)nn1-c1ccc(C(=O)N(C)CCCN(C)CCCN(C)C(=O)CCC(C(=O)O)N2CCN(CC(=O)O)CCN(CC(=O)O)CC2)cc1C(C)C (stereo not shown)", "value units": "nM", "IC50": 14.5}

----------
Measured IC50 accompanies every entry in the list below.
# target or test system: NTR1 (Homo sapiens (Human), UniProt P30989)
# Sequence (P30989 whole entry): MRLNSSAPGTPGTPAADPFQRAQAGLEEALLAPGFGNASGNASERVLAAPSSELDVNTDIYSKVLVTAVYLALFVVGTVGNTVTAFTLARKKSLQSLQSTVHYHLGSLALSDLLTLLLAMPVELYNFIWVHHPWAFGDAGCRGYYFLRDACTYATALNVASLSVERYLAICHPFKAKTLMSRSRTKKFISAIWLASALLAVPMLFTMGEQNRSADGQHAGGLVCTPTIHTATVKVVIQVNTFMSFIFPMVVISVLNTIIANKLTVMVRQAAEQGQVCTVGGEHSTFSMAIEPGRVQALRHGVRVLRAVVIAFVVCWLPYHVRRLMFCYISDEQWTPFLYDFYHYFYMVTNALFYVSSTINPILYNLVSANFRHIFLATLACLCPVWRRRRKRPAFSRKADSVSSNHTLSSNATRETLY
# method summary: Radioligand binding assay NTR1 (example part II)
# condition info: 0.05 nM 125I-(Tyr3-neurotensin), 60 min at 4° C.; read-out: IC50 [nM] RLB

{"compound": "CNCCCN(C)CCCN(C)C(=O)c1ccc(-n2nc(C(=O)NC3(C(=O)O)C4CC5CC(C4)CC3C5)cc2-c2c(OC)cccc2OC)c(C(C)C)c1 (centres unmarked)", "value units": "nM", "IC50": 0.87}
{"compound": "COc1cccc(OC)c1-c1cc(C(=O)NC2(C(=O)O)C3CC4CC(C3)CC2C4)nn1-c1ccc(C(=O)N(CCCNC(=O)CCC(=O)NCCCOCCOCCOCCCNC(=O)CN2CCN(CC(=O)O)CCN(CC(=O)O)CCN(CC(=O)O)CC2)CCCN(C)C)cc1C(C)C (centres unmarked)", "value units": "nM", "IC50": 2.4}
{"compound": "COc1cccc(OC)c1-c1cc(C(=O)NC2(C(=O)O)C3CC4CC(C3)CC2C4)nn1-c1ccc(C(=O)N(C)CCCN(C)CCCN(C)C(=O)c2ccc(F)cc2)cc1C(C)C (centres unmarked)", "value units": "nM", "IC50": 2.3}
{"compound": "COc1cccc(OC)c1-c1cc(C(=O)NC2(C(=O)O)C3CC4CC(C3)CC2C4)nn1-c1ccc(C(=O)N(C)CCCN(C)CCCN(C)C(=O)CCC(C(=O)O)N2CCN(CC(=O)O)CCN(CC(=O)O)CC2)cc1C(C)C (centres unmarked)", "value units": "nM", "IC50": 3.7}
{"compound": "COc1cccc(OC)c1-c1cc(C(=O)NC2(C(=O)O)C3CC4CC(C3)CC2C4)nn1-c1ccc(C(=O)N(C)CCCN(C)CCCN(C)C(=O)CCCCCNC(=O)CN2CCN(CC(=O)O)CCN(CC(=O)O)CCN(CC(=O)O)CC2)cc1C(C)C (centres unmarked)", "value units": "nM", "IC50": 5.7}
{"compound": "COc1cccc(OC)c1-c1cc(C(=O)NC2(C(=O)O)C3CC4CC(C3)CC2C4)nn1-c1ccc(C(=O)N(CCCN)CCCN(C)C)cc1C(C)C (centres unmarked)", "value units": "nM", "IC50": 5.3}
{"compound": "COc1cccc(OC)c1-c1cc(C(=O)NC2(C(=O)O)C3CC4CC(C3)CC2C4)nn1-c1ccc(C(=O)N(CCCNC(=O)CN2CCN(CC(=O)O)CCN(CC(=O)O)CCN(CC(=O)O)CC2)CCCN(C)C)cc1C(C)C (centres unmarked)", "value units": "nM", "IC50": 3.4}
{"compound": "COc1cccc(OC)c1-c1cc(C(=O)NC2(C(=O)O)C3CC4CC(C3)CC2C4)nn1-c1ccc(C(=O)N(C)CCCN(C)CCCN(C)C(=O)CCC(=O)NCCCOCCOCCOCCCNC(=O)CN2CCN(CC(=O)O)CCN(CC(=O)O)CCN(CC(=O)O)CC2)cc1C(C)C (centres unmarked)", "value units": "nM", "IC50": 5.2}
{"compound": "COc1cccc(OC)c1-c1cc(C(=O)NC2(C(=O)O)C3CC4CC(C3)CC2C4)nn1-c1ccc(C(=O)N(C)CCCN(C)CCCN(C)C(=O)CN2CCN(CC(=O)O)CCN(CC(=O)O)CCN(CC(=O)O)CC2)cc1C(C)C (centres unmarked)", "value units": "nM", "IC50": 2.9}
{"compound": "COc1cccc(OC)c1-c1cc(C(=O)NC2(C(=O)O)C3CC4CC(C3)CC2C4)nn1-c1ccc(C(=O)N(C)CCCN(C)CCCN(C)C(=S)Nc2ccc(NC(=S)NCCCCCN(O)C(=O)CCC(=O)NCCCCCN(O)C(=O)CCC(=O)NCCCCCN(O)C(C)=O)cc2)cc1C(C)C (centres unmarked)", "value units": "nM", "IC50": 3}
{"compound": "COc1cccc(OC)c1-c1cc(C(=O)NC2(C(=O)O)C3CC4CC(C3)CC2C4)nn1-c1ccc(C(=O)N(C)CCCN(C)CCCN(C)C(=O)CCC(=O)NCCCOCCOCCOCCCNC(=O)CCC(C(=O)O)N2CCN(CC(=O)O)CCN(CC(=O)O)CC2)cc1C(C)C (centres unmarked)", "value units": "nM", "IC50": 4.9}

----------
# method summary: Plasma protein binding assay, human
# Assay type: in vitro ADME
# condition info: plasma proteins, 4 h at 37° C., equilibrium dialysis, read-out: % bound [human]
# Description: A drug's efficiency may be affected by the degree to which it binds to the proteins within blood plasma. A drug in blood exists in two forms: bound and unbound. […] The binding of test substances to human and murine plasma proteins was tested by Cerep (Celle l'Evescault, France; Catalog reference 2194 [human] and 2223 [mouse]) according to Banker et al., J. Pharm. […] Subsequently, the fraction of compound bound to plasma proteins was determined by equilibrium dialysis and HPLC-MS/MS detection. […]

{"compound": "COc1cccc(OC)c1-c1cc(C(=O)NC2(C(=O)O)C3CC4CC(C3)CC2C4)nn1-c1ccc(C(=O)N(C)CCCN(C)CCCN(C)C(=O)CN2CCN(CC(=O)O)CCN(CC(=O)O)CCN(CC(=O)O)CC2)cc1C(C)C (stereo not shown)", "fraction unbound at 4 h": 0.01}

----------
# target or test system: UniProt P41595
# Sequence (P41595 whole entry): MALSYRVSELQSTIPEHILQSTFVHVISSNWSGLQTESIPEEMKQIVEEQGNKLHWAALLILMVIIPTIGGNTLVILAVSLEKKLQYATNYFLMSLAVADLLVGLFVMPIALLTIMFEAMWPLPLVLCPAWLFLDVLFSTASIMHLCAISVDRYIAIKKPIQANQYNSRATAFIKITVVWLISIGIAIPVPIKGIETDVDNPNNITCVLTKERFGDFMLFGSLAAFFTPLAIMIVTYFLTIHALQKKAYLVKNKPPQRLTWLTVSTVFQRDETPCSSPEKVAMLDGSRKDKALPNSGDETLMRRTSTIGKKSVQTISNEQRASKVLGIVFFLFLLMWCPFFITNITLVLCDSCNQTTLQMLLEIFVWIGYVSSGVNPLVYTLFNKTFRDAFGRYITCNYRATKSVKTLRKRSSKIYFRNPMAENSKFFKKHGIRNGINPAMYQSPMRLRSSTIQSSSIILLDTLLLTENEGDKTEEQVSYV

{"molecule": "COc1cc(CC(C)N)c(OC)cc1I (racemic) [(±)DOI]", "Ki / nM": 3.1}

----------
# method summary: Plasma protein binding assay, mouse
# Type: in vitro ADME
# condition info: plasma proteins, 4 h at 37° C., equilibrium dialysis, read-out: % bound [mouse] (converted)

{"molecule": "COc1cccc(OC)c1-c1cc(C(=O)NC2(C(=O)O)C3CC4CC(C3)CC2C4)nn1-c1ccc(C(=O)N(C)CCCN(C)CCCN(C)C(=O)CN2CCN(CC(=O)O)CCN(CC(=O)O)CCN(CC(=O)O)CC2)cc1C(C)C (stereo not shown)", "fraction unbound at 4 h": 0.11}

----------
# target or test system: NTR1 (Homo sapiens (Human))
# method summary: Functional Ca2+ mobilisation assay (example part II)
# Type: cell-based
# condition info: antagonist assay
property measured: IC50 (nM)

{"compound": "COc1cccc(OC)c1-c1cc(C(=O)NC2(C(=O)O)C3CC4CC(C3)CC2C4)nn1-c1ccc(C(=O)N(C)CCCN(C)CCCN(C)C(=O)CCC(=O)NCCCOCCOCCOCCCNC(=O)CCC(C(=O)O)N2CCN(CC(=O)O)CCN(CC(=O)O)CC2)cc1C(C)C (centres unmarked)", "quantitative readout": 21.4}
{"compound": "COc1cccc(OC)c1-c1cc(C(=O)NC2(C(=O)O)C3CC4CC(C3)CC2C4)nn1-c1ccc(C(=O)N(C)CCCN(C)CCCN(C)C(=O)CCC(=O)NCCCOCCOCCOCCCNC(=O)CN2CCN(CC(=O)O)CCN(CC(=O)O)CCN(CC(=O)O)CC2)cc1C(C)C (centres unmarked)", "quantitative readout": 16.6}
{"compound": "COc1cccc(OC)c1-c1cc(C(=O)NC2(C(=O)O)C3CC4CC(C3)CC2C4)nn1-c1ccc(C(=O)N(C)CCCN(C)CCCN(C)C(=O)c2ccc(F)cc2)cc1C(C)C (centres unmarked)", "quantitative readout": 14.5}
{"compound": "COc1cccc(OC)c1-c1cc(C(=O)NC2(C(=O)O)C3CC4CC(C3)CC2C4)nn1-c1ccc(C(=O)N(C)CCCN(C)CCCN(C)C(=O)CCCCCNC(=O)CN2CCN(CC(=O)O)CCN(CC(=O)O)CCN(CC(=O)O)CC2)cc1C(C)C (centres unmarked)", "quantitative readout": 11.8}
{"compound": "CNCCCN(C)CCCN(C)C(=O)c1ccc(-n2nc(C(=O)NC3(C(=O)O)C4CC5CC(C4)CC3C5)cc2-c2c(OC)cccc2OC)c(C(C)C)c1 (centres unmarked)", "quantitative readout": 7.54}
{"compound": "COc1cccc(OC)c1-c1cc(C(=O)NC2(C(=O)O)C3CC4CC(C3)CC2C4)nn1-c1ccc(C(=O)N(C)CCCN(C)CCCN(C)C(=O)CN2CCN(CC(=O)O)CCN(CC(=O)O)CCN(CC(=O)O)CC2)cc1C(C)C (centres unmarked)", "quantitative readout": 20}
{"compound": "COc1cccc(OC)c1-c1cc(C(=O)NC2(C(=O)O)C3CC4CC(C3)CC2C4)nn1-c1ccc(C(=O)N(CCCN)CCCN(C)C)cc1C(C)C (centres unmarked)", "quantitative readout": 8.95}
{"compound": "COc1cccc(OC)c1-c1cc(C(=O)NC2(C(=O)O)C3CC4CC(C3)CC2C4)nn1-c1ccc(C(=O)N(CCCNC(=O)CCC(=O)NCCCOCCOCCOCCCNC(=O)CN2CCN(CC(=O)O)CCN(CC(=O)O)CCN(CC(=O)O)CC2)CCCN(C)C)cc1C(C)C (centres unmarked)", "quantitative readout": 26}
